What follows is a collection of Ki values obtained with Melanocortin receptor 5 (Homo sapiens, UniProt P33032).
Sequence (P33032 whole entry): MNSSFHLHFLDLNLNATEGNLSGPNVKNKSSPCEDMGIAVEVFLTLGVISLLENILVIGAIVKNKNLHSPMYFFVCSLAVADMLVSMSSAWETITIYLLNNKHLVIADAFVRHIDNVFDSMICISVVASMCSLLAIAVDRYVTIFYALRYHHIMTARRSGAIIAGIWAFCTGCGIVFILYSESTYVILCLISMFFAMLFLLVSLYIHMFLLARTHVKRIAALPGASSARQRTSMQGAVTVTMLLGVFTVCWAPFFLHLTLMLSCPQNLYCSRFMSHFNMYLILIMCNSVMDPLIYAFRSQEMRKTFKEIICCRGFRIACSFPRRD

For record H-YVMGHFRWDRFGRRNGSSSSGVGGAAQ-OH [Gamma3-MSH] the listed Ki is > 10 µM

For record H-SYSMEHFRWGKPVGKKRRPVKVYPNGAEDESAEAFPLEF-OH [ACTH] the listed Ki is > 10 µM

For record H-SMEVRGW-OH [delta MSH] the listed Ki is > 10 µM
